system: human TLR8 (Homo sapiens, UniProt Q9NR97)
Sequence (Q9NR97 27-1041): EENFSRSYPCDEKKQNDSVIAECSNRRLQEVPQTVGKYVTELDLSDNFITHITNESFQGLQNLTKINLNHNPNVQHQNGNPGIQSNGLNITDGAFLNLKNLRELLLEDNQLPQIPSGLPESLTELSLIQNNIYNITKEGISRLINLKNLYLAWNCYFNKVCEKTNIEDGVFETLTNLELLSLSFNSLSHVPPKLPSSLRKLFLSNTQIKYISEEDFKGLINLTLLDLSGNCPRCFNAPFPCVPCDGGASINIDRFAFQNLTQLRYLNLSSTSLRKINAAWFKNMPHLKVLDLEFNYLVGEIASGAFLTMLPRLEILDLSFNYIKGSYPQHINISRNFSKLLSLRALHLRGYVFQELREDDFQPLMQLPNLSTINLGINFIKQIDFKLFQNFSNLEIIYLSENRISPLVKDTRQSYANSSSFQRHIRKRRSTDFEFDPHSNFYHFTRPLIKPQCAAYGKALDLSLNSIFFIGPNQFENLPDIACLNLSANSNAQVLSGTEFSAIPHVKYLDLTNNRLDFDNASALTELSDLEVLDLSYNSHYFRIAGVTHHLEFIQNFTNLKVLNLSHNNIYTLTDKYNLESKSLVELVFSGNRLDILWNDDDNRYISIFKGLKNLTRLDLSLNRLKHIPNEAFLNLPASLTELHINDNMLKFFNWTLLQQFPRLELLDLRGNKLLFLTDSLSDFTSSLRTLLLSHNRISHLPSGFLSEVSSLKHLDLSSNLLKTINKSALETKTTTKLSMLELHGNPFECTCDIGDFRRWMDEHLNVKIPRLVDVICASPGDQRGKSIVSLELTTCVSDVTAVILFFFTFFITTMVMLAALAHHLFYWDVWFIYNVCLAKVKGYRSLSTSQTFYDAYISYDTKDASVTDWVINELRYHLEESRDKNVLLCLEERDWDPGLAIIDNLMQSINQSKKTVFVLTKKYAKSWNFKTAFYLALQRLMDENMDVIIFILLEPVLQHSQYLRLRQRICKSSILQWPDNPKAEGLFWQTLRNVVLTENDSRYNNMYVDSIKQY
measurementDescription: TLR8 inhibition reporter assay (HEK-Blue cells, SEAP reporter, R848 stimulation)
conditionInfo: HEK-Blue cells overexpressing human TLR8, SEAP reporter, R848 15.9 μM
readoutLabel: IC50

Cc1cc(-c2[nH]nc(-c3cncc(NC(C)C)c3)c2C(C)C)cn2ncnc12 ... 0.27 nM
COc1cc(-c2[nH]nc(-c3ccc(C4CCN(CC5CCOCC5)CC4)cn3)c2C(C)C)cn2ncnc12 ... 8.4 nM

For each of the compounds below, note its IC50.
1. Cc1cc(-c2[nH]nc(C(=O)N3CCNCC3)c2C(C)C)cn2ncnc12
2. CCN1CCC(c2cnc(-c3n[nH]c(-c4cc(OC)c5ncnn5c4)c3C(C)C)cn2)CC1

Result ::
1. 1.34 nM
2. 2.33 nM

====

system: human TLR8 (Homo sapiens, UniProt Q9NR97)
measurementDescription: TLR8 inhibition reporter assay (HEK-Blue cells, SEAP reporter, R848 stimulation)
conditionInfo: HEK-Blue cells overexpressing human TLR8, SEAP reporter, R848 15.9 μM
Excerpt: TLR7/8/9 Inhibition Reporter Assays HEK-Blue™-cells (Invivogen) overexpressing human TLR7, TLR8 or TLR9 receptors were used for screening inhibitors of these receptors using an inducible SEAP (secreted embryonic alkaline phosphatase) reporter gene under the control of the IFN-β minimal promoter fused to five NF-κB and AP-1-binding sites. […]
readoutLabel: pIC50
Numbers only, as −log10 of the molar value.

CCC(CC)N[C@H]1CC[C@H](NC(=O)c2n[nH]c(-c3cc(C)c4ncnn4c3)c2C(C)C)CC1 ... 7.27
Cc1cc(-c2[nH]nc(C(=O)NC3CCN(CCC(F)(F)F)CC3)c2C(C)C)cn2ncnc12 [Example 69] ... 7.45
CC(C)c1c(C(=O)NC2CCN(C)CC2)n[nH]c1-c1cn(C)c2ncccc12 ... 8.58
Cc1cc(-c2[nH]nc(C(=O)N[C@H]3CCCN(CC4=NC(C)N=N4)C3)c2C(C)C)cn2ncnc12 (stereo partly drawn) ... 7.84
COc1cc(-c2[nH]nc(-c3ccc(C4CN(C(C)C)C4)cc3)c2C(C)C)cn2ncnc12 ... 9.31

# map each molecule to its pIC50
1. Cc1c(-c2[nH]nc(C(=O)NC3CCN(C(C)C)CC3)c2C(C)C)cn2ncnc2c1C
2. Cc1ncc(CN[C@H]2CC[C@H](NC(=O)c3n[nH]c(-c4cc(C)c5ncnn5c4)c3C(C)C)CC2)cn1
3. Cc1cc(-c2[nH]nc(C(=O)N[C@H]3CC[C@H](NC(C)C(C)C)CC3)c2C(C)C)cn2ncnc12 (stereo partly drawn)
4. Cc1cc(-c2[nH]nc(C(=O)NCC3CN(C4COC4)CCO3)c2C(C)C)cn2ncnc12 (stereo not drawn) [Example 142]

Result ::
8.82
8.55
8.90
8.57

====

system: human TLR8 (Homo sapiens)
measurementDescription: TLR8 inhibition reporter assay (HEK-Blue cells, SEAP reporter, R848 stimulation)
conditionInfo: HEK-Blue cells overexpressing human TLR8, SEAP reporter, R848 15.9 μM
What log10 IC50 was measured for each of the following?
Log10 applied to IC50; unit prior to transform: nM.

The following molecules have reported results that may help.
CNC1CCC(c2n[nH]c(-c3cc(C)c4ncnn4c3)c2C(C)C)CC1 (single isomer, unassigned) [Example 295] ... -0.55
Cc1cc(-c2[nH]nc(CN(C)C)c2C(C)C)cn2ncnc12 ... -0.08
Cc1cc(-c2[nH]nc(-c3nc4c(s3)CNCC4)c2C(C)C)cn2ncnc12 ... 1.27
CCCN1CC(c2ccc(-c3n[nH]c(-c4cc(OC)c5ncnn5c4)c3C(C)C)cc2)C1 ... 0.18
COc1cc(-c2[nH]nc(-c3ccc(C4CCNCC4)cn3)c2C(C)C)cn2ncnc12 ... 0.59

Dear colleague, could you please provide log10 IC50 for the molecules listed below?
1. COCCN1CCC(NC(=O)c2n[nH]c(-c3cc(C)c4ncnn4c3)c2C(C)C)CC1
2. Cc1cc(-c2[nH]nc(-c3cnc(C4CCNCC4)nc3)c2C(C)C)cn2ncnc12
3. Cc1cc(-c2[nH]nc(C(=O)N[C@H]3CC[C@H](NCC4CCOC4)CC3)c2C(C)C)cn2ncnc12 (some centres unmarked)

Result ::
0.34
0.52
1.64

====

system: human TLR7 (Homo sapiens, UniProt Q9NYK1)
Construct: host or cells: HEK-Blue cells
Sequence (Q9NYK1 27-1049): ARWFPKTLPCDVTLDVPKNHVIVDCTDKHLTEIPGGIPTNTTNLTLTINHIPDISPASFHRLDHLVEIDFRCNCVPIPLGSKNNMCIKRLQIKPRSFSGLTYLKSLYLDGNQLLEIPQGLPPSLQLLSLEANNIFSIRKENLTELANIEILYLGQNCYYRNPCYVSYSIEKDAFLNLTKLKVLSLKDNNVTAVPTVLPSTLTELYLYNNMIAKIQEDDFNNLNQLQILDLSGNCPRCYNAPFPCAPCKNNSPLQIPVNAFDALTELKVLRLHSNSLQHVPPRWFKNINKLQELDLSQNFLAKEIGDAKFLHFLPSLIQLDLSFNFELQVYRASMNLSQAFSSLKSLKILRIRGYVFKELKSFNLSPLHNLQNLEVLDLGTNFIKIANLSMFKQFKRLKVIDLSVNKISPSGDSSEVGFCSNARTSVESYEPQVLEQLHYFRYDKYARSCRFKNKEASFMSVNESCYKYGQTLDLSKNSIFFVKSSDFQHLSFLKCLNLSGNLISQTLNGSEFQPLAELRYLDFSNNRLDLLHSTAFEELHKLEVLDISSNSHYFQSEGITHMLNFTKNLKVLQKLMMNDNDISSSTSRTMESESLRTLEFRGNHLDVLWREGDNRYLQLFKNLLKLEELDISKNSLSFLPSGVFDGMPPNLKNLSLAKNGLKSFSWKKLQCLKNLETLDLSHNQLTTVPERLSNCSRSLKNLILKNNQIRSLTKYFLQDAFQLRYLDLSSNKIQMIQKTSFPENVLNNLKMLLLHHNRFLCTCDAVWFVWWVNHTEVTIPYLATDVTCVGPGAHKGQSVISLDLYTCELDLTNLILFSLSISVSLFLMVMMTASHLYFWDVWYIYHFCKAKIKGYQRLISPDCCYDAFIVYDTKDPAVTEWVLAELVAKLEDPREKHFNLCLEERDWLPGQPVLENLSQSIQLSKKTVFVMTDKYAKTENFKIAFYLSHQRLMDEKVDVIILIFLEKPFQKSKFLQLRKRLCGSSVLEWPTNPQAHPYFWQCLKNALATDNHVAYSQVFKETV
measurementDescription: TLR7 inhibition reporter assay (HEK-Blue cells, SEAP reporter, gardiquimod stimulation)
Type: cell-based
conditionInfo: HEK-Blue cells overexpressing human TLR7, SEAP reporter, gardiquimod 7.5 μM
Kindly apply the following: Criterion met if IC50 is less than 20 nM, Criterion not met in every other case.

Example cases with answers are listed next.
Cc1cc(-c2[nH]nc(-c3ncc(C4CCNCC4)cn3)c2C(C)C)cn2ncnc12 ... Criterion met
Cc1cc(-c2[nH]nc(C(=O)N[C@@H]3CCCN(C(C)C)C3)c2C(C)C)cn2ncnc12 ... Criterion met
Cc1cc(-c2[nH]nc(C(=O)N[C@H]3CC[C@H](N(CC4CC4)CC4CC4)CC3)c2C(C)C)cn2ncnc12 ... Criterion not met
Cc1cc(-c2[nH]nc(-c3ccc(C4CN(C(=O)CN(C)C)C4)cc3)c2C(C)C)cn2ncnc12 ... Criterion met
Cc1cc(-c2[nH]nc(-c3ccc4cnccc4c3)c2C(C)C)cn2ncnc12 ... Criterion met

Query :: Below 20 nM on IC50? Entry `Cc1cc(-c2[nH]nc(-c3ncc4c(n3)CCN(C)C4)c2C(C)C)cn2ncnc12`
Result :: Criterion met

Query :: Hello, I'm reviewing records and need to know if IC50 of Cc1cc(-c2[nH]nc(C3CCC(N(C)C(=O)CN(C)C)CC3)c2C(C)C)cn2ncnc12 (single isomer, unassigned) [compound 297] is below 20 nM. Could you check?
Result :: Criterion met

Query :: Dear colleague, could you confirm whether IC50 of `Cc1cc(-c2[nH]nc(-c3ccc(C4CCN(C)CC4)nn3)c2C(C)C)cn2ncnc12` falls below 20 nM? Thanks.
Result :: Criterion not met

Query :: Just wondering, is IC50 of `Cc1cc(-c2[nH]nc(-c3nc4c(s3)CN(CC(C)(C)O)CC4)c2C(C)C)cn2ncnc12` below 20 nM?
Result :: Criterion met

Query :: In plain terms, does `Cc1cc(-c2[nH]nc(-c3ccc(C4CCN(CC(C)(C)C)CC4)cn3)c2C(C)C)cn2ncnc12` come in under 20 nM for IC50?
Result :: Criterion not met

Query :: Please let me know if `Cc1cc(-c2[nH]nc(C(=O)NCCc3ccccn3)c2C(C)C)cn2ncnc12` shows IC50 below 20 nM.
Result :: Criterion met

Query :: A record lists `Cc1cc(-c2[nH]nc(C(=O)N[C@H]3CC[C@@H](NC4COC4)CC3)c2C(C)C)cn2ncnc12` . Is its IC50 below 20 nM?
Result :: Criterion met

Query :: Does the reported IC50 of the following compound sit strictly below 20 nM? `COc1cc(-c2[nH]nc(C(=O)NC3CCNCC3)c2C(C)C)cn2ncnc12`
Result :: Criterion not met

====

system: UniProt Q9NR96
Sequence (Q9NR96 26-1032): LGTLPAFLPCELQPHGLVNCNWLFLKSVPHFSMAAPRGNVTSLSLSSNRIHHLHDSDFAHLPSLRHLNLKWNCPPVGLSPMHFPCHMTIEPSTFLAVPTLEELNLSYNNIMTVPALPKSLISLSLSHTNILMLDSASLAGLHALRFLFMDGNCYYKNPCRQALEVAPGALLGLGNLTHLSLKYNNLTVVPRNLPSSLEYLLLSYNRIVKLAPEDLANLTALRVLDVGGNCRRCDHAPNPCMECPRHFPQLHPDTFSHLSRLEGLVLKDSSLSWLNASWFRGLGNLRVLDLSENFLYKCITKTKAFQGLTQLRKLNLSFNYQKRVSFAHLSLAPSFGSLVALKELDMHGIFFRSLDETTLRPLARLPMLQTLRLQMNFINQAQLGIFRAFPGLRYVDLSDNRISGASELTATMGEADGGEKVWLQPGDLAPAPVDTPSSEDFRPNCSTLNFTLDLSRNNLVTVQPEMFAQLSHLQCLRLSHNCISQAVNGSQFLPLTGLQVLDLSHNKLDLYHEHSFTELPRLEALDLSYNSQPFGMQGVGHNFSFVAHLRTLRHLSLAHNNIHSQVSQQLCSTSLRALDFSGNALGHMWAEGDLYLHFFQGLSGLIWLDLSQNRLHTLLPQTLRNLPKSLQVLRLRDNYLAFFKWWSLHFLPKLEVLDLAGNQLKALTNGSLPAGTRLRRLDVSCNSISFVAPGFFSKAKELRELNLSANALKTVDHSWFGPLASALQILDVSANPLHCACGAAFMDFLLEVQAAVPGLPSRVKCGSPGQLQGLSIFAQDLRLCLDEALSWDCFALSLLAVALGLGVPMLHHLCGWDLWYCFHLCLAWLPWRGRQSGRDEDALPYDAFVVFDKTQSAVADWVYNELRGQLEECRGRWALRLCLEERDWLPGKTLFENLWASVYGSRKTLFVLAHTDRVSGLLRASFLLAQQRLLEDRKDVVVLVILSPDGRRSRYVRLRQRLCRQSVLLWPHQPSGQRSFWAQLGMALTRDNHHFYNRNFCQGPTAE
measurementDescription: TLR9 inhibition reporter assay (HEK-Blue cells, SEAP reporter, ODN2006 stimulation)
conditionInfo: HEK-Blue cells overexpressing human TLR9, SEAP reporter, ODN2006 5 nM
readoutLabel: pIC50
Give bare numbers, as −log10 of the molar value.

Below are worked cases with known answers.
Cc1cc(-c2[nH]nc(C(=O)N[C@H]3CC[C@H](NCC(C)(C)C)CC3)c2C(C)C)cn2ncnc12 ... 4.84
CNC1CCC(c2n[nH]c(-c3cc(C)c4ncnn4c3)c2C(C)C)CC1 (single isomer, unassigned) [Example 295] ... 5.01
CC(C)c1c(C(=O)NC2CCN(C(C)C)CC2)n[nH]c1-c1cn(C)c2ncccc12 ... 4.72
Cc1cc(-c2[nH]nc(C3CCC(N(C)C(=O)C4CN(C(C)C)C4)CC3)c2C(C)C)cn2ncnc12 (single isomer, unassigned) [Example 303] ... 4.58

Working through the 8 molecules below one at a time, give pIC50 for each.
1. Cc1cc(-c2[nH]nc(-c3ccc(C4CN(C(=O)CN(C)C)C4)cc3)c2C(C)C)cn2ncnc12
2. Cc1cc(-c2[nH]nc(-c3ccc(C4CN(C(C)C)C4)cc3)c2C(C)C)cn2ncnc12
3. Cc1cc(-c2[nH]nc(C(=O)NC3CCN(C(C)C)CC3)c2C(C)C)cn2ncnc12
4. Cc1cc(-c2[nH]nc(C3CCC(N4CCC(N(C)C)CC4)CC3)c2C(C)C)cn2ncnc12 (single isomer, unassigned) [Example 293]
5. Cc1cc(-c2[nH]nc(-c3ccc(NC(C)C)nc3)c2C(C)C)cn2ncnc12
6. Cc1cc(-c2[nH]nc(-c3ccc(N4CC(NC(C)C)C4)cc3)c2C(C)C)cn2ncnc12
7. CCN1CCOC(CNC(=O)c2n[nH]c(-c3cc(C)c4ncnn4c3)c2C(C)C)C1 (stereo not shown)
8. CCN1CCC(c2ccc(-c3n[nH]c(-c4cc(C)c5ncnn5c4)c3C(C)C)nc2)CC1

Result ::
[5.32, 4.80, 5.18, 5.18, 5.21, 5.01, 4.98, 5.20]

Give measured pIC50 for every item shown.
1. Cc1cc(-c2[nH]nc(-c3ccc4c(c3)CCN(C3COC3)C4)c2C(C)C)cn2ncnc12
2. Cc1cc(-c2[nH]nc(C(=O)NCC3CCNCC3)c2C(C)C)cn2ncnc12
3. Cc1cc(-c2[nH]nc(C(=O)N[C@H]3CC[C@@H](NC(C)C)CC3)c2C(C)C)cn2ncnc12
4. COc1cc(-c2[nH]nc(-c3ccc(C4CN(CCS(C)(=O)=O)C4)cc3)c2C(C)C)cn2ncnc12
5. Cc1c(C(=O)NC2CCN(C)CC2)n[nH]c1-c1cc(C)c2ncnn2c1
6. COc1c(C)c(-c2[nH]nc(-c3ccc(C4CCNCC4)cn3)c2C(C)C)cn2ncnc12
7. Cc1c(C(=O)NC2CCN(C(C)C)CC2)n[nH]c1-c1cc(C)c2ncnn2c1

Result ::
1: 4.37; 2: 4.34; 3: 5.16; 4: 4.34; 5: 5.28; 6: 4.72; 7: 5.14
